The measured values listed here are drawn from paper PMC7340475.

target: α2A-AR (Homo sapiens, UniProt P08913)
Sequence (P08913 whole entry): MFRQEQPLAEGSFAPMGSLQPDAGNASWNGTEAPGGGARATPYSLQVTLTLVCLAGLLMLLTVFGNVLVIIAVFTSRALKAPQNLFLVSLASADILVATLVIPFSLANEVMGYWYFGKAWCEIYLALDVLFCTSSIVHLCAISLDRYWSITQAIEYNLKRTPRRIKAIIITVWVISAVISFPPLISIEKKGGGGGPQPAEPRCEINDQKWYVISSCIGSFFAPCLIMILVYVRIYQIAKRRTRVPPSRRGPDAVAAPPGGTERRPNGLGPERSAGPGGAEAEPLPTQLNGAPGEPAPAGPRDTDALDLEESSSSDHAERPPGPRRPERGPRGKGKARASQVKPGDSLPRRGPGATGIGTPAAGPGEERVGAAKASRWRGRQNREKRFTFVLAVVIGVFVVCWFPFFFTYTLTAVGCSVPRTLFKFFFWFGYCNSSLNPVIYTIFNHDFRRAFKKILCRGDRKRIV
Measured parameter: Kd (nM)
Numbers only, in nM.

input: Fill in: Kd of Clc1cc(I)cc(Cl)c1NC1=NCCN1 [[^125I]-PIC, [^125I]-paraiodoclonidine] is ___
output: 0.209

====

target: α2C-AR (Homo sapiens, UniProt P18825)
Sequence (P18825 whole entry): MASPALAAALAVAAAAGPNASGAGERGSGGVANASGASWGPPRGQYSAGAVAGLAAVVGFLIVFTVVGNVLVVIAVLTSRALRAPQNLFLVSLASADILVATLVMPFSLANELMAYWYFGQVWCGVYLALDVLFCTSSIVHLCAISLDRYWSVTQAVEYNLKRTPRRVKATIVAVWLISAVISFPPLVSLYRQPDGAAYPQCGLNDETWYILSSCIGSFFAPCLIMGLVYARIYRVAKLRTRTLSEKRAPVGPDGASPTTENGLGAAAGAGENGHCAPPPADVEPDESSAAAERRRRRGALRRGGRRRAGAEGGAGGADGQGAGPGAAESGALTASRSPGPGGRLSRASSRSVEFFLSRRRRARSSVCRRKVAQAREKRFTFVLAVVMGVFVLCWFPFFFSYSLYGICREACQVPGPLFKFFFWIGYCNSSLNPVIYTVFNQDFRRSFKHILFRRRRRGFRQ
Measured parameter: Kd (nM)
Give bare numbers, in nM.

input: Fill in: Kd of Clc1cc(I)cc(Cl)c1NC1=NCCN1 [[^125I]-PIC, [^125I]-paraiodoclonidine] is ___
output: 0.802
